System under test: Glutathione S-transferase omega-1 (Homo sapiens, UniProt P78417)
Assay summary: Inhibition of recombinant GSTO1-1 (unknown origin) expressed in Escherichia coli assessed as inhibitor constant using S-(4-nitrophenacyl)glutathione as substrate preincubated for 1 to 6 mins followed by substrate addition by spectrophotmetric analysis
pKi: −log10 of the molar value.
Measure name: pKi

# Molecule, pKi
data = [
    ("COCCN(C)S(=O)(=O)c1cc(NC(=O)CCl)ccc1Cl", 5.16),
]

P. CN(C)S(=O)(=O)c1cc(C2CO2)ccc1Cl (stereo not drawn)
Q. COCCNS(=O)(=O)c1cc(NC(=O)CCl)ccc1Cl
Please indicate which entry, P or Q , has the lower recorded pKi value. Answer = label.
P
(P: 5.30, Q: 5.60)

###

System under test: Glutathione S-transferase omega-1 (Homo sapiens, UniProt P78417)
Sequence (P78417 whole entry): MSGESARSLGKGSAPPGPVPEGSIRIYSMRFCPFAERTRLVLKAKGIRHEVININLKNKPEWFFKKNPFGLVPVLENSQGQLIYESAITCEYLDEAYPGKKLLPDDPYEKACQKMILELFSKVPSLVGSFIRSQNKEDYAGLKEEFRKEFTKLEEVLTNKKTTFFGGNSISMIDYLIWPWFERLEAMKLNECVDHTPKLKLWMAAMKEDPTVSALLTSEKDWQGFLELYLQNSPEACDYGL
Assay summary: Inhibition of recombinant GSTO1-1 (unknown origin) expressed in Escherichia coli using S-(4-nitrophenacyl)glutathione as substrate preincubated for 2 mins followed by substrate addition by 4-NPG assay
Measure name: IC50

Observe how each entry below is paired with its result.
# Compound, System under test, Obs value
records = [
    ("CN(C)S(=O)(=O)c1cc(NC(=O)CC#N)ccc1Cl", "Glutathione S-transferase omega-1 (Homo sapiens, UniProt P78417)", "> 100 µM"),
    ("CC(Cl)C(=O)Nc1ccc(Cl)c(S(=O)(=O)N(C)C)c1 (stereo not drawn)", "Glutathione S-transferase omega-1 (Homo sapiens, UniProt P78417)", "> 10 µM"),
]

State the recorded IC50 for this entry: CN(C)S(=O)(=O)c1cc(NC(=O)CF)ccc1Cl
> 100 µM

###

Please consider the recorded Kinact for Glutathione S-transferase omega-1 (Homo sapiens) (UniProt P78417) in what follows.
Measure name: Kinact (min⁻¹)

Observe how each entry below is paired with its result.
# Compound, Kinact, min⁻¹
records = [
    ("COCCNS(=O)(=O)c1cc(NC(=O)CCl)ccc1Cl", 0.8),
    ("CN(C)S(=O)(=O)c1cc(CS(=O)(=O)F)ccc1Cl", 2.3),
]

I. CN(C)S(=O)(=O)c1cc(C2CO2)ccc1Cl (centres undefined)
II. CN(C)S(=O)(=O)c1cc(NC(=O)CCl)ccc1C(F)(F)F
Compare the recorded Kinact of I and II ; state which is larger. Answer = label.
II
(II: 1.1 min⁻¹, I: 0.47 min⁻¹)

###

Some compounds, each annotated with its measured IC50.
System under test: Glutathione S-transferase omega-1 (Homo sapiens)
Assay summary: Inhibition of recombinant GSTO1-1 (unknown origin) expressed in Escherichia coli using S-(4-nitrophenacyl)glutathione as substrate preincubated for 2 mins followed by substrate addition by 4-NPG assay

# Compound, IC50
rows = [
    ("CN(C)S(=O)(=O)c1cc(NCC#N)ccc1Cl", "> 100 µM"),
]

State the recorded IC50 for this entry: CN(C)S(=O)(=O)c1cc(CC2CO2)ccc1Cl (configuration not stated)
> 100 µM

State the recorded IC50 for this entry: CN(C)S(=O)(=O)c1cc(NC(=O)C(N)=O)ccc1Cl
> 1000 µM

###

System under test: Glutathione S-transferase omega-1 (Homo sapiens, UniProt P78417)
Assay summary: Inhibition of recombinant GSTO1-1 (unknown origin) expressed in Escherichia coli using S-(4-nitrophenacyl)glutathione as substrate preincubated for 2 mins followed by substrate addition by 4-NPG assay
pIC50: −log10 of the molar value.
Measure name: pIC50

# Chemical structure, Measure name, Obs value
rows = [
    ("CN(C)S(=O)(=O)c1cc(NC(=O)CCCl)ccc1Cl", "pIC50", "< 5.00"),
]

Notebook entry, Glutathione S-transferase omega-1 (Homo sapiens, UniProt P78417) assay: pIC50 of CC(=O)C(=O)Nc1ccc(Cl)c(S(=O)(=O)N(C)C)c1 = ?
< 5.00

Notebook entry, Glutathione S-transferase omega-1 (Homo sapiens, UniProt P78417) assay: pIC50 of C/C=C/C(=O)Nc1ccc(Cl)c(S(=O)(=O)N(C)C)c1 = ?
< 4.00

Notebook entry, Glutathione S-transferase omega-1 (Homo sapiens, UniProt P78417) assay: pIC50 of CN(C)S(=O)(=O)c1cc(CCS(=O)(=O)F)ccc1Cl = ?
< 5.00
